Target: GSK3α (GST-full length GSK3α) (Homo sapiens (Human), UniProt P49840)
Sequence (P49840 whole entry): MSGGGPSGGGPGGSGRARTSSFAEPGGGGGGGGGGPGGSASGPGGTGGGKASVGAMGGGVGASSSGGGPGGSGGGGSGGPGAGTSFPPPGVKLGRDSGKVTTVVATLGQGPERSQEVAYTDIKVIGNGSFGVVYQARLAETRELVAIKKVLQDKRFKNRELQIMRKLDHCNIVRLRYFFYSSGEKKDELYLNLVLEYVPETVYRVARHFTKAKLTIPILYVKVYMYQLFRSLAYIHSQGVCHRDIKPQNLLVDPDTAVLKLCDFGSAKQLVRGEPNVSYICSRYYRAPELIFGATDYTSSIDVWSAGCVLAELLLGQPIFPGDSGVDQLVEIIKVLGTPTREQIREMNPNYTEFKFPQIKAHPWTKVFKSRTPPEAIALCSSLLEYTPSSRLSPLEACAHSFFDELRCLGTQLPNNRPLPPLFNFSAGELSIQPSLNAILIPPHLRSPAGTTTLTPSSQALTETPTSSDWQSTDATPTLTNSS
Assay: GSK3α TR-FRET kinase assay
Format: biochemical
Details: 1 nM GSK3α, 4 μM ATP, 30 minute preincubation, Table 16; read-out: GSK3-A TR-FRET BIOCHEMICAL (TR-FRET)
Experimental: TR-FRET Assay: The assay was performed in a white, 384 well, low volume, flat bottom plate (Grenier). After a 30 minute preincubation in assay buffer with the indicated concentration of compound, the kinase activity was initiated by the addition of the substrates. […] After 60 min at room temperature the plate was read on Envision plate reader using Ex: 340 nm, Em: 615 nm and […]. The normalized 665/615 Signal ratio versus log compound concentration was analyzed by XLFIT to yield IC50 values.
pIC50: −log10 of the molar value.
assay-metric: pIC50

Solved entries:
molecule="CC1(C)CC(=O)C2=C(C1)Nc1n[nH]cc1C21CCOCC1 [Compound 826648]" assay_metric=pIC50 reported="6.00 to 7.00"
molecule="CCc1cccc(C2(CC)C3=C(CC(C)(C)CC3=O)Nc3n[nH]cc32)c1 (stereo not drawn) [Compound 949391]" assay_metric=pIC50 reported="5.30 to 6.00"
molecule="Cc1ccc(S(=O)(=O)N2CCC3(CC2)C2=C(CC(C)(C)CC2=O)Nc2n[nH]cc23)s1 [Compound 945672]" assay_metric=pIC50 reported="≥ 7.00"
molecule="CC[C@]1(c2cccc(N(C)c3cccc(OC)n3)c2)C2=C(CC(C)(C)CC2=O)Nc2n[nH]cc21 [Compound 932666]" assay_metric=pIC50 reported="≥ 7.00"
molecule="CCC1(CC)C2=C(CC(C)(C)CC2=O)Nc2n[nH]c(C)c21 [Compound 786061]" assay_metric=pIC50 reported="6.00 to 7.00"

Give its pIC50 value. Item: C[C@@H]1CC[C@@]2(C1)C1=C(CC(C)(C)CC1=O)Nc1n[nH]cc12 [Compound 883841] 6.00 to 7.00

Give its pIC50 value. Item: CC[C@@]1(c2cccc(-c3cc(OC)ncc3F)c2)C2=C(CC(C)(C)CC2=O)Nc2n[nH]cc21 [Compound 944035] 5.30 to 6.00

Give its pIC50 value. Item: Cc1cccc(S(=O)(=O)N2CCC3(CC2)C2=C(CC(C)(C)CC2=O)Nc2n[nH]cc23)c1 [Compound 947261] ≥ 7.00

Give its pIC50 value. Item: CC1(C)CC(=O)C2=C(C1)Nc1n[nH]cc1C21CC(c2ccccc2)C1 (stereo not drawn) [Compound 917082] ≥ 7.00

Give its pIC50 value. Item: CCC1(c2cccc(Nc3ncccn3)c2)C2=C(CC(C)(C)CC2=O)Nc2n[nH]cc21 (stereo not drawn) [Compound 945943] ≥ 7.00

Give its pIC50 value. Item: CCC1(c2cccc(-c3ccnc(OC(F)(F)F)c3)c2)C2=C(CC(C)(C)CC2=O)Nc2n[nH]cc21 (stereo not drawn) [Compound 943988] 6.00 to 7.00

Give its pIC50 value. Item: CC1(C)CC(=O)C2=C(Nc3n[nH]cc3[C@]23CC[C@H](C(F)(F)F)CC3)C1F (stereo partly drawn) [Compound 917136] ≥ 7.00

Give its pIC50 value. Item: CCC1(c2cccc(-c3ccnc(OC)n3)c2)C2=C(CC(C)(C)CC2=O)Nc2n[nH]cc21 (stereo not drawn) [Compound 948092] ≥ 7.00

Give its pIC50 value. Item: CC[C@@]1(c2ccccc2)C2=C(CC(C)(C)[C@@H](F)C2=O)Nc2n[nH]cc21 [Compound 957406] < 5.30

Give its pIC50 value. Item: CCC1(c2cccc(-c3cnnn3C)c2)C2=C(CC(C)(C)CC2=O)Nc2n[nH]cc21 (stereo not drawn) [Compound 947398] ≥ 7.00

Give its pIC50 value. Item: CC[C@@]1(c2cccc(-c3cnn(C)c3)c2)C2=C(Nc3n[nH]cc31)[C@H](F)C(C)(C)CC2=O [Compound 957505] ≥ 7.00

Give its pIC50 value. Item: CC[C@@H]1C[C@]2(CO1)C1=C(CC(C)(C)CC1=O)Nc1n[nH]cc12 [Compound 913215] 6.00 to 7.00

Give its pIC50 value. Item: CC[C@]1(c2cccc(-c3ccncc3F)c2)C2=C(CC(C)(C)CC2=O)Nc2n[nH]c(C(F)(F)F)c21 [Compound 947326] ≥ 7.00

Give its pIC50 value. Item: CC1(C)CC(=O)C2=C(C1)Nc1n[nH]cc1C21CCC(c2ccccc2)CC1 (stereo not drawn) [Compound 877320] ≥ 7.00

Give its pIC50 value. Item: CCOc1cccc(S(=O)(=O)N2CCC3(CC2)C2=C(CC(C)(C)CC2=O)Nc2n[nH]cc23)c1 [Compound 947253] ≥ 7.00

Give its pIC50 value. Item: Cc1cc([C@H]2CC[C@@]3(CC2)C2=C(CC(C)(C)CC2=O)Nc2n[nH]cc23)ccn1 [Compound 948415] ≥ 7.00

Give its pIC50 value. Item: CCC1(c2cccc(Oc3cncnc3)c2)C2=C(CC(C)(C)CC2=O)Nc2n[nH]cc21 (stereo not drawn) [Compound 945939] 6.00 to 7.00
